Test system: Plasmodium berghei
Assay: Luciferase/luciferin-expressing antifolate-resistant parasites were used to infect a culture of HepG2 cells that were pre-incubated with compounds. Infected hepatocytes emit light due to the luciferase reaction. Assay results are presented as the percent inhibition of light emission compared to control. […]
Assay type: functional
Conditions: sporozoite, HEPG2TOX_HILL_SLOPE 1.4, HEPG2TOX_R_SQUARED 0.562, read-out: LUCIFERASE INFECTION ASSAY - IC50
readout-name: IC50

Inquiry: I'd like to know its IC50. The compound in question is CCc1cccc2c(C(=O)COC(=O)/C(C#N)=C/c3ccc(OC)cc3)c[nH]c12
Reply text: > 10 µM

* * *

Tested on: Plasmodium berghei
Assay: Luciferase/luciferin-expressing antifolate-resistant parasites were used to infect a culture of HepG2 cells that were pre-incubated with compounds. Infected hepatocytes emit light due to the luciferase reaction. Assay results are presented as the percent inhibition of light emission compared to control. […]
Format: functional
Details: sporozoite, FFLUC_HILL_SLOPE 11.3, FFLUC_R_SQUARED 0.657, HEPG2TOX_HILL_SLOPE 5.77, HEPG2TOX_R_SQUARED 0.944, PBLUC_HILL_SLOPE 9.21, PBLUC_R_SQUARED 0.384, read-out: LUCIFERASE INFECTION ASSAY - IC50
readout-name: IC50 (nM)
The figure you give is taken to be in nM; do not add the unit.

Inquiry: I'd like to know its IC50. The compound in question is CCCc1c(NC(=O)Nc2cc(C(F)(F)F)cc(C(F)(F)F)c2)cnn1-c1ccccc1
Reply text: 2990

* * *

Test system: Plasmodium berghei
Assay: Luciferase/luciferin-expressing antifolate-resistant parasites were used to infect a culture of HepG2 cells that were pre-incubated with compounds. Infected hepatocytes emit light due to the luciferase reaction. Assay results are presented as the percent inhibition of light emission compared to control. […]
Format: functional
Conditions: sporozoite, PBLUC_HILL_SLOPE 2.47, PBLUC_R_SQUARED 0.452, read-out: LUCIFERASE INFECTION ASSAY - IC50
readout-name: IC50 (µM)
The figure you give is taken to be in µM; do not add the unit.

Inquiry: I'd like to know its IC50. The compound in question is CC(C)c1ccc(NC(=O)N2[C@@H]3CC[C@@H](C3)[C@H]2c2nc3c(OCC4CC4)cccc3[nH]2)cc1
Reply text: 6.2

* * *

System: Plasmodium berghei
Assay: Luciferase/luciferin-expressing antifolate-resistant parasites were used to infect a culture of HepG2 cells that were pre-incubated with compounds. Infected hepatocytes emit light due to the luciferase reaction. Assay results are presented as the percent inhibition of light emission compared to control. […]
Format: functional
Conditions: sporozoite, PBLUC_HILL_SLOPE 13.7, PBLUC_R_SQUARED 0.493, read-out: LUCIFERASE INFECTION ASSAY - IC50
readout-name: pIC50
Convention used: pIC50 is expressed as -log10 of the molar concentration.

Inquiry: I'd like to know its pIC50. The molecule in question is CN1CCN(S(=O)(=O)c2ccc(N3CCC(c4nc5ccccc5s4)CC3)nc2)CC1
Reply text: 5.02

* * *

Tested on: Plasmodium berghei
Test: Luciferase/luciferin-expressing antifolate-resistant parasites were used to infect a culture of HepG2 cells that were pre-incubated with compounds. Infected hepatocytes emit light due to the luciferase reaction. Assay results are presented as the percent inhibition of light emission compared to control. […]
Format: functional
Details: sporozoite, PBLUC_HILL_SLOPE 9.79, 8.06, PBLUC_R_SQUARED 0.178, 0.335, read-out: LUCIFERASE INFECTION ASSAY - IC50
readout-name: IC50 (µM)
The figure you give is taken to be in µM; do not add the unit.

Inquiry: I'd like to know its IC50. The compound in question is N#CC1=C2Sc3ccccc3N2C(O)(C(F)(F)F)C(C(=O)C(F)(F)F)=C1 (stereo unspecified)
Reply text: 3.71

* * *

Test system: Plasmodium berghei
Assay: Luciferase/luciferin-expressing antifolate-resistant parasites were used to infect a culture of HepG2 cells that were pre-incubated with compounds. Infected hepatocytes emit light due to the luciferase reaction. Assay results are presented as the percent inhibition of light emission compared to control. […]
Assay type: functional
Settings: sporozoite, FFLUC_HILL_SLOPE 9.01, FFLUC_R_SQUARED 0.23, read-out: LUCIFERASE INFECTION ASSAY - IC50
pIC50: −log10 of the molar value.
readout-name: pIC50

Inquiry: Short answer please: pIC50, Plasmodium berghei, entry CC(Sc1nnc(-c2cccs2)n1C(C)C1CC2CCC1C2)C(=O)N1CCCc2ccccc21 (stereo unspecified)
Reply text: < 5.00

* * *

System: Plasmodium berghei
Test: Luciferase/luciferin-expressing antifolate-resistant parasites were used to infect a culture of HepG2 cells that were pre-incubated with compounds. Infected hepatocytes emit light due to the luciferase reaction. Assay results are presented as the percent inhibition of light emission compared to control. […]
Format: functional
Settings: sporozoite, PBLUC_HILL_SLOPE 1.9, PBLUC_R_SQUARED 0.511, read-out: LUCIFERASE INFECTION ASSAY - IC50
readout-name: IC50 (µM)
The figure you give is taken to be in µM; do not add the unit.

Inquiry: I'd like to know its IC50. The molecule in question is Cc1cc(C(=O)N/N=C2\C(=O)Nc3ccccc32)c(C)n1-c1ccc(F)cc1
Reply text: 3.94

* * *

Tested on: Plasmodium berghei
Test: Luciferase/luciferin-expressing antifolate-resistant parasites were used to infect a culture of HepG2 cells that were pre-incubated with compounds. Infected hepatocytes emit light due to the luciferase reaction. Assay results are presented as the percent inhibition of light emission compared to control. […]
Assay type: functional
Details: sporozoite, HEPG2TOX_HILL_SLOPE 2.09, HEPG2TOX_R_SQUARED 0.992, PBLUC_HILL_SLOPE 1.31, PBLUC_R_SQUARED 0.551, read-out: LUCIFERASE INFECTION ASSAY - IC50
readout-name: pIC50
Convention used: pIC50 is expressed as -log10 of the molar concentration.

Inquiry: I'd like to know its pIC50. The molecule in question is Cc1nn(-c2ccc(F)cc2)c(Cl)c1/C=C1\C(=O)Nc2ccccc21
Reply text: 6.06

* * *

Tested on: Plasmodium berghei
Test: Luciferase/luciferin-expressing antifolate-resistant parasites were used to infect a culture of HepG2 cells that were pre-incubated with compounds. Infected hepatocytes emit light due to the luciferase reaction. Assay results are presented as the percent inhibition of light emission compared to control. […]
Format: functional
Details: sporozoite, FFLUC_HILL_SLOPE 16.6, FFLUC_R_SQUARED 0.205, read-out: LUCIFERASE INFECTION ASSAY - IC50
pIC50: −log10 of the molar value.
readout-name: pIC50

Inquiry: I'd like to know its pIC50. The molecule in question is Cc1cc(C)cc(C(=O)N(CC2CCCO2)c2nc3ccccc3s2)c1 (stereo unspecified)
Reply text: < 5.00

* * *

Test system: Plasmodium berghei
Assay: Luciferase/luciferin-expressing antifolate-resistant parasites were used to infect a culture of HepG2 cells that were pre-incubated with compounds. Infected hepatocytes emit light due to the luciferase reaction. Assay results are presented as the percent inhibition of light emission compared to control. […]
Assay type: functional
Settings: sporozoite, PBLUC_HILL_SLOPE 6.96, PBLUC_R_SQUARED 0.782, read-out: LUCIFERASE INFECTION ASSAY - IC50
readout-name: IC50 (µM)
The figure you give is taken to be in µM; do not add the unit.

Inquiry: I'd like to know its IC50. The compound in question is Cc1ccccc1OCC(O)CN(CC(C)C)CC(C)C (stereo unspecified)
Reply text: 8.86

* * *

Tested on: Plasmodium berghei
Experiment: Luciferase/luciferin-expressing antifolate-resistant parasites were used to infect a culture of HepG2 cells that were pre-incubated with compounds. Infected hepatocytes emit light due to the luciferase reaction. Assay results are presented as the percent inhibition of light emission compared to control. […]
Format: functional
Conditions: sporozoite, HEPG2TOX_HILL_SLOPE 2.11, HEPG2TOX_R_SQUARED 0.958, PBLUC_HILL_SLOPE 7.93, PBLUC_R_SQUARED 0.809, read-out: LUCIFERASE INFECTION ASSAY - IC50
readout-name: pIC50
Convention used: pIC50 is expressed as -log10 of the molar concentration.

Inquiry: Short answer please: pIC50, Plasmodium berghei, entry O=c1c(Cl)c(Cl)cnn1-c1nc2ccccc2[nH]1
Reply text: 5.90

* * *

Listing of recorded IC90 by entry.
Tested on: Plasmodium berghei
Experiment: Luciferase/luciferin-expressing antifolate-resistant parasites were used to infect a culture of HepG2 cells that were pre-incubated with compounds. Infected hepatocytes emit light due to the luciferase reaction. Assay results are presented as the percent inhibition of light emission compared to control. […]
Format: functional
Settings: sporozoite, read-out: LUCIFERASE INFECTION ASSAY - IC90
The figure you give is taken to be in µM; do not add the unit.

Cn1nc(SCC(=O)NN)c(=O)n(C)c1=O    3.54
O=C(/C=C/c1cn(-c2ccccc2)nc1-c1cccnc1)Nc1nc(-c2ccccn2)cs1    8.39
Cc1cccc(C2CC(=O)c3cnn(-c4nc(C)cc(C)n4)c3C2)c1 (stereo not given)    1.39

Next item in the queue.
Inquiry: Short answer please: IC90, Plasmodium berghei, entry Cc1cc(O)c(C(C)C)cc1NC1=NC(=O)S/C1=C\c1cc(Cl)ccc1OCC(=O)Nc1ccc(Cl)cc1
Reply text: 3.24
